// provenance: patent US12581252B2

assay: cells; settings: Homo sapiens, MCF-10A, read-out: MCF10A IC50
pIC50: −log10 of the molar value.
reportedMetric: pIC50

These solved cases illustrate the format of a correct answer.
[[record]]
compound = "COc1ncc(-c2cc(NC(=O)c3cc(F)cc(C(F)(F)F)c3)c3c(c2)C(=O)N[C@H]3c2cc(F)ccc2Cl)cn1 [Compound I-882]"
reportedmetric = "pIC50"
recordedmeasurement = "> 6.00"

[[record]]
compound = "NCc1cc(NC(=O)N2CC(O)(C(F)(F)F)c3cc(F)ccc32)c2c(c1)C(=O)NC2c1cc(F)ccc1Cl (stereo not drawn) [Compound I-2568]"
reportedmetric = "pIC50"
recordedmeasurement = "4.44 to 5.00"

[[record]]
compound = "O=C(Nc1cc(-c2cn3ncnc3cn2)cc2c1C(c1cc(F)ccc1C(F)F)NC2=O)c1cc(F)cc(C(F)(F)F)c1 (stereo not drawn) [Compound I-2185]"
reportedmetric = "pIC50"
recordedmeasurement = "> 6.00"

[[record]]
compound = "O=C(Nc1cc(-n2cccn2)cc2c1[C@H](c1cc(F)ccc1Cl)NC2=O)c1cc(F)cc(C(F)(F)F)c1 [Compound I-1069]"
reportedmetric = "pIC50"
recordedmeasurement = "> 6.00"

[[record]]
compound = "O=C1N[C@@H](c2cc(F)ccc2Cl)c2c(NC(=O)[C@H]3CCC[C@@H](C(F)(F)F)C3)cc(-c3ccc4ncnn4c3)cc21 [Compound I-2029]"
reportedmetric = "pIC50"
recordedmeasurement = "> 6.00"


As a next step, examine the compound that follows.
[Q] Endpoint output: pIC50 of O=C1N[C@@H](c2cc(F)ccc2Cl)c2c(Nc3nccc4c(C(F)(F)F)cc(F)cc34)cc(Br)cc21 [Compound I-1109] . Value?
[A] > 6.00

---

biological target: H1047R PIK3CA enzyme (Homo sapiens, UniProt P42336, H1047R); experiment: ADP-Glo Biochemical PIK3CA Kinase Assay
Sequence (P42336 whole entry H1047R): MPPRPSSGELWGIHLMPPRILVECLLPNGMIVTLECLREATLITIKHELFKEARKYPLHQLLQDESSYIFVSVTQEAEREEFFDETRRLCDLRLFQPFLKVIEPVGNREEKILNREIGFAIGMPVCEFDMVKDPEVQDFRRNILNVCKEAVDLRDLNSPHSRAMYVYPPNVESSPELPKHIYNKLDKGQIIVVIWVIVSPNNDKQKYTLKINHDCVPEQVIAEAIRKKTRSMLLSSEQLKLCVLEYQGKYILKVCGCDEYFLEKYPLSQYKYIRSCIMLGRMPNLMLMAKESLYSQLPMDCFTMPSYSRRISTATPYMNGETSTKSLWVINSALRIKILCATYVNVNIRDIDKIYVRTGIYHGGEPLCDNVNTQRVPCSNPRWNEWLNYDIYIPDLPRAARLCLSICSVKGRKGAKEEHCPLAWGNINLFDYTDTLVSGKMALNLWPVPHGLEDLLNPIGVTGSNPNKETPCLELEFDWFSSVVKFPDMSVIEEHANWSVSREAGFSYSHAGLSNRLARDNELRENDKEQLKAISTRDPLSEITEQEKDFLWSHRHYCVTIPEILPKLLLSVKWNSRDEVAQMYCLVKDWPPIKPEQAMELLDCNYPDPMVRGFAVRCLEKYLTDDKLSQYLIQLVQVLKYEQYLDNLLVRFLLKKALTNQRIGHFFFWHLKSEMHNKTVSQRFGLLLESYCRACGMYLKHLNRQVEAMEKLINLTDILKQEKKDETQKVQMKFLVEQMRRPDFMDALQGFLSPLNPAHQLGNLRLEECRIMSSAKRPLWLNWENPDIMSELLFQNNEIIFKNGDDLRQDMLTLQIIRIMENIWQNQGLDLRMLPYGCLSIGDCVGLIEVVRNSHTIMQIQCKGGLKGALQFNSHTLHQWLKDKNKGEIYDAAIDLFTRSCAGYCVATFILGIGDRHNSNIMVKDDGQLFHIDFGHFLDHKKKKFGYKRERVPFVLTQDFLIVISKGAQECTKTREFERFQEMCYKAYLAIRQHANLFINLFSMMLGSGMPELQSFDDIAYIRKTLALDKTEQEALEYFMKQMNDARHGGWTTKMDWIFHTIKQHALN
Sequence (P27986 whole entry partner): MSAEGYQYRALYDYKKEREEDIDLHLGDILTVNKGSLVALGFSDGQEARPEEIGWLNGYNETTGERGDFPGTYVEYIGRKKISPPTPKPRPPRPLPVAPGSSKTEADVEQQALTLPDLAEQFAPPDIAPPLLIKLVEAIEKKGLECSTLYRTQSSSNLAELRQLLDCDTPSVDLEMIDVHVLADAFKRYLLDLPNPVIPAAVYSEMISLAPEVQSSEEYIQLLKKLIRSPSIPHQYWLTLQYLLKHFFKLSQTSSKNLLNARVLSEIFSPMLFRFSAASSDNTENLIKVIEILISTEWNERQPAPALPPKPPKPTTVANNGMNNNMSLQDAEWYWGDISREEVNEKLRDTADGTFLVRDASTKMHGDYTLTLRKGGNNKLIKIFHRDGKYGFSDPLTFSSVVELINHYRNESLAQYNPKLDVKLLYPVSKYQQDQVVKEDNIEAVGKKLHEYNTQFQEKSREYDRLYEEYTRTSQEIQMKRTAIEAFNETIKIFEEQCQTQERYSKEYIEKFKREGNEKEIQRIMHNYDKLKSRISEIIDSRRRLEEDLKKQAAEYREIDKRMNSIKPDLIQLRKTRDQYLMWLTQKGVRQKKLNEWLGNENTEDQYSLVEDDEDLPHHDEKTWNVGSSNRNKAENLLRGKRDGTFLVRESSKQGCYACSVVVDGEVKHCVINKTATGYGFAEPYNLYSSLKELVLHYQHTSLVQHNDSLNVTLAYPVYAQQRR
Please provide measured IC50 for the entries that follow.

[[record]]
molecule = "O=C(Nc1cccc2c1[C@@H](C1CC1)NC2=O)c1cc(F)cc(C(F)(F)F)c1 (single isomer, unassigned)"
recordedmeasurement = "10 to 100 µM"

[[record]]
molecule = "O=C(Nc1cc(-c2ccc3c(c2)OCO3)cc2c1C(c1cc(F)ccc1Cl)NC2=O)c1cc(F)cc(C(F)(F)F)c1 (stereo not drawn)"
recordedmeasurement = "≤ 0.1 µM"

[[record]]
molecule = "Cc1ccccc1C1NC(=O)c2cccc(NC(=O)c3ncn4ccc(Cl)cc34)c21 (stereo not drawn)"
recordedmeasurement = "1 to 10 µM"


Return reported IC50 values for all items listed beneath this line.
1. CN(C)c1cc(NC(=O)N2C[C@](O)(C(F)(F)F)c3cc(F)ccc32)c2c(n1)C(=O)N[C@@H]2c1cc(F)ccc1Cl (single isomer, unassigned)
2. Cn1cc(-c2cc(NC(=O)c3nsc4ccccc34)c3c(n2)C(=O)N[C@@H]3c2ccccc2Cl)cn1
3. N#CCc1cc(NC(=O)N2CC(O)(C(F)(F)F)c3ccccc32)c2c(c1)C(=O)NC2c1cc(F)ccc1Cl (mixture of isomers)

[A]
["10 to 100 µM", "0.1 to 0.5 µM", "≤ 0.1 µM"]

---

Molecular target: H1047R PIK3CA enzyme (Homo sapiens, UniProt P42336, H1047R)
Assay: ADP-Glo Biochemical PIK3CA Kinase Assay
Experimental: Compounds to be assayed were plated in 16 doses of 1:2 serial dilutions (20 nL volume each well) on a 1536-well plate, and the plate warmed to room temperature. […] To the well was added 1 μL of 200 μM ATP and 20 μM of diC8-PIP2 in Substrate Assay Buffer (50 mM HEPES pH7.4, 50 mM NaCl, 5 mM DTT and 0.03% CHAPS) to start the reaction, and the plate was shaken for 10 seconds, then spun briefly at 1500 rpm, and then incubated for 60 minutes at room temperature. […]
reportedMetric: IC50

These solved cases illustrate the format of a correct answer.
[[record]]
compound = "O=C1N[C@@H](c2cc(F)ccc2Cl)c2c(NC(=O)N3C[C@@](O)(C(F)F)c4cc(F)ccc43)cc(F)cc21 (single isomer, unassigned) [Compound I-2633]"
reportedmetric = "IC50"
recordedmeasurement = "1000 to 10000 nM"

[[record]]
compound = "O=C(Nc1cc(CS(=O)(=O)c2ccccc2)cc2c1C(c1cc(F)ccc1Cl)NC2=O)c1cc(F)cc(C(F)(F)F)c1 (stereo not drawn) [Compound I-1436]"
reportedmetric = "IC50"
recordedmeasurement = "≤ 100 nM"

[[record]]
compound = "CC(C)n1cc(-c2cc(NC(=O)c3cc(F)cc(C(F)(F)F)c3)c3c(c2)C(=O)N[C@@H]3c2cc(F)ccc2Cl)ccc1=O [Compound I-742]"
reportedmetric = "IC50"
recordedmeasurement = "1000 to 10000 nM"

[[record]]
compound = "CN(C)C(=O)OCc1cc(NC(=O)c2cc(F)cc(C(F)(F)F)c2)c2c(c1)C(=O)NC2c1cc(F)ccc1Cl (stereo not drawn) [Compound I-1532]"
reportedmetric = "IC50"
recordedmeasurement = "≤ 100 nM"

[[record]]
compound = "O=C1N[C@H](c2cc(F)ccc2Cl)c2c(NC(=O)N3C[C@@H](O)c4ccccc43)cc(-c3ccc4ncnn4c3)cc21 (single isomer, unassigned) [Compound I-1579]"
reportedmetric = "IC50"
recordedmeasurement = "500 to 1000 nM"


Return reported IC50 values for all items listed beneath this line.
1. Cc1coc(Nc2cc(NC(=O)c3cc(F)cc(C(F)(F)F)c3)c3c(c2)C(=O)NC3c2cc(F)ccc2Cl)n1 (stereo not drawn) [Compound I-964]
2. CNc1cc(C(F)(F)F)cc(C(=O)Nc2cccc3c2C(c2cc(F)ccc2Cl)NC3=O)n1 (stereo not drawn) [Compound I-839]
3. O=C(Nc1cc(N2CC3(CNC3)C2)cc2c1C(c1cc(F)ccc1Cl)NC2=O)c1cc(F)cc(C(F)(F)F)c1 (stereo not drawn) [Compound I-1299]

[A]
≤ 100 nM
10000 to 100000 nM
100 to 500 nM
